molecular target: Proteasome subunit beta (Trypanosoma cruzi); assay: Trypanosoma cruzi proteasome chymotrypsin-like activity (TcProtChymo) assay.; type: functional; design: scale not given: in the data most compounds retested in dose-response had high values; details: 9.37 µM
Below, each of the compounds is paired with its reported Percent Effect value.
parameter_measured: Percent Effect (%)

>>> recorded_result("COCc1ccccc1CNc1nnc(C)c(C)c1C#N")
17.9
>>> recorded_result("O=C(c1cccnc1N1CCOCC1)N1CCCC1Cn1cccn1 (centres undefined)")
-0.242
>>> recorded_result("N#CC1(C(=O)N2CCN(c3nccs3)CC2)CCCCC1")
11
>>> recorded_result("Cn1nc(C2CCN(C(=O)Cc3cccc(F)c3)CC2)c2cccnc21")
6.71
>>> recorded_result("CCC(=O)NCC(=O)NCc1cc(Br)ccc1OC(F)F")
7.15
>>> recorded_result("CC(=O)NCCNC(=O)c1cnc(-c2ccccc2)nc1")
3.35
>>> recorded_result("COCC(=O)N1CCC2(CC1)COCCN2CCN(C)C")
0.342
>>> recorded_result("O=C(NCC1CCN(Cc2ccsc2)CC1)NC1CC1")
17.2
>>> recorded_result("CC(C)OCCOCc1cccc(NC(=O)NCc2ccncc2)c1")
11.5
>>> recorded_result("O=C(c1ccccn1)N1C[C@@H]2CC[C@H](C1)N(C(=O)CCc1cccs1)C2")
13.1
>>> recorded_result("Cc1nn(CC(=O)N2CCCCC2Cn2cccn2)c(C)c1Cl (centres undefined)")
14.4
>>> recorded_result("CN(C)c1nc2c(c(N3CCC(O)CC3)n1)CN(CC1CCNC1)CC2 (centres undefined)")
10.9
>>> recorded_result("Cc1cnn(CC2CCCN2C(=O)c2cn(-c3ccccc3)nc2C)c1 (centres undefined)")
-4.32
>>> recorded_result("Cc1nn(CC(C)C)c(N(C)C)c1CNCc1cccnc1N(C)C")
7.75
>>> recorded_result("Cc1cccc(-n2cc(C(=O)N3CCn4c(C)nnc4C3)nn2)c1")
3
>>> recorded_result("O=C(NCc1cccnc1)C1=NOC2(CCN(S(=O)(=O)C3CC3)C2)C1 (centres undefined)")
5.81
>>> recorded_result("Cc1ccsc1[C@@H]1CCN(C(=O)c2cc3ccccc3[nH]2)C[C@H]1O")
15.3
>>> recorded_result("Cc1cccc(Cn2ccc(NS(C)(=O)=O)n2)c1")
9.65
>>> recorded_result("Cc1nn(C)cc1CN1CCC(C2Nc3ccccc3S(=O)(=O)N2)CC1 (centres undefined)")
7.49
>>> recorded_result("O=C(C1SCCc2sccc21)N1CCN(CCO)CC1 (centres undefined)")
17.7
>>> recorded_result("Cc1nc2cc(O)nn2c(C)c1CCC(=O)N(C)Cc1cscn1")
6.42
>>> recorded_result("Cc1nnc(C(C)N2CCN(Cc3ccc(C#N)cc3)CC2)o1 (centres undefined)")
-5.22
>>> recorded_result("CN1CCCC[C@@H]2[C@H]1[C@@H](c1ccccc1)CCN2C(=O)c1ccccc1")
15.6
>>> recorded_result("Cc1nc(CN2CCCC(N(C)CCc3cccs3)C2)no1 (centres undefined)")
11.4

###

biological target: Protein translocase subunit SecA (Escherichia coli (strain K12)) (UniProt P10408); experiment: Assay to Identify E. coli SecA ATPase Inhibitors; format: functional; set-up: scale not given: direction of the effect not stated beside the values; details: 30 µM
Sequence (P10408 whole entry): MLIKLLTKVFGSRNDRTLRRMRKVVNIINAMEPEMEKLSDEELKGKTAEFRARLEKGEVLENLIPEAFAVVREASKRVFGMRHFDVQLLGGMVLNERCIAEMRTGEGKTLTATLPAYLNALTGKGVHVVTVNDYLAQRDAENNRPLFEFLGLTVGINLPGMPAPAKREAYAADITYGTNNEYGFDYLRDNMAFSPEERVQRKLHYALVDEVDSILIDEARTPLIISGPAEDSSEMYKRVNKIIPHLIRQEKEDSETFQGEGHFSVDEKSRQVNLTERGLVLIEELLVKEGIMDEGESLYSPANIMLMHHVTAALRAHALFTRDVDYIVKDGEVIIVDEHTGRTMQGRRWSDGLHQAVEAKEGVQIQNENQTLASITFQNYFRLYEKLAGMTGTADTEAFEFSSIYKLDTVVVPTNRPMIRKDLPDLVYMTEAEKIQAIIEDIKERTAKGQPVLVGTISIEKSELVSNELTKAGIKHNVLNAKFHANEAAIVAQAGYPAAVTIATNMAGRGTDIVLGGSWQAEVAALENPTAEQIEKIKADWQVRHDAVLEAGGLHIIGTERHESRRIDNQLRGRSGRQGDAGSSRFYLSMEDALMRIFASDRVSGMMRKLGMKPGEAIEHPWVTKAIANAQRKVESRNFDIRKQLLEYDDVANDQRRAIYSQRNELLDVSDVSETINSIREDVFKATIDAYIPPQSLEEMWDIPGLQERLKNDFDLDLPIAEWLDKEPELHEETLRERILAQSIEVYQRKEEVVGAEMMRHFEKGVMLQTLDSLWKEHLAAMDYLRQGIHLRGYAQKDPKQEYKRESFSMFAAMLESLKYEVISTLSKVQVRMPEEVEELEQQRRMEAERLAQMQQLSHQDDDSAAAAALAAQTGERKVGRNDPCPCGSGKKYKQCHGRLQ
Potency and affinity values are given separately.
Below, each of the molecules is paired with its reported Percent Effect value.
parameter_measured: Percent Effect (%)

>>> recorded_result("CCN1CCC(c2nc3ccc(NC(C)C)cn3n2)CC1")
-3.94
>>> recorded_result("CCc1nnc2n1CCN(CCS(=O)(=O)c1ccccc1)C2")
-7.25
>>> recorded_result("COc1ncccc1CNC(=O)NC1CCOc2ccccc21 (configuration not stated)")
-3.57
>>> recorded_result("O=C(CCNc1ncccn1)NCCc1ccn(-c2ccccc2)n1")
-3.96
>>> recorded_result("Cc1ccc(CN2CCc3ncc(CNS(C)(=O)=O)n3CC2)o1")
-0.0355
>>> recorded_result("Cn1cc(C(=O)NCC2CCN(C(=O)NCC(F)(F)F)CC2)cn1")
-2.53
>>> recorded_result("Cc1nc(COCc2cnc3n2CCN(C2CCC2)C3C)cs1 (configuration not stated)")
-2.77
>>> recorded_result("COc1ccc(NC(=O)CNc2cccc3c2CCCC3)c(OC)c1")
-6.64
>>> recorded_result("CCC(=O)Nc1nnc(CCOc2cccc(OC)c2)s1")
-4.51
>>> recorded_result("Cc1ccc(N2CCCC(NCC(=O)NC3CCOCC3)C2)nn1 (configuration not stated)")
-5.04
>>> recorded_result("CCn1nc(C)c(CCn2ccnc2-c2cc3n(n2)CCCNC3)c1C")
-3.39
>>> recorded_result("O=C(NCCCn1cncn1)NCC(c1ccco1)N1CCCCC1 (configuration not stated)")
1.3
